Test system: HEK-293T
procedure_details: Multiplex assay against HEK293T
Format: toxicity, cell-based
applied_conditions: human, 12 h, 10 µM, compound concentration 10 uM, replicate 1
// reported Population Mitotic Cells (%) per item
Answer in %, number only, no unit symbol.

Here is how some compounds turned out for Population Mitotic Cells (%).
CCc1nn(CCCN2CCN(c3cccc(Cl)c3)CC2)c(=O)n1CCOc1ccccc1.Cl [NEFAZODONE HYDROCHLORIDE]
9
O=c1[nH]c2ccccc2n1C1CCN(Cc2ccc(-c3[nH]c4cc5ncnc5cc4nc3-c3ccccc3)cc2)CC1
61
COc1ccccc1CN[C@H]1C2CCN(CC2)[C@H]1C(c1ccccc1)c1ccccc1
20
CC(C)Oc1ccccc1C(=O)Nc1ccccc1C(=O)Nc1cccc(S(=O)(=O)C(F)(F)F)c1
34
Cc1c[nH]c2nccc(Oc3c(F)cc(Nc4cc(Cl)nc(N)n4)cc3F)c12
54

Q) Note down Population Mitotic Cells (%) recorded for Cc1ccccc1C(c1ccccc1C)N1C2CCC1CC(O)(c1ccccc1)C2 (configuration not stated)
A) 46

Q) Note down Population Mitotic Cells (%) recorded for COC(=O)C1=C(C)NC(C)=C(C(=O)OCCCN2CCC(c3ccccc3)(c3ccccc3)CC2)[C@H]1c1cccc([N+](=O)[O-])c1
A) 18
